B1: PLD5 (parent)
chain: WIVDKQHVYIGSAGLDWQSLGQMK

variants of: B1; assay: protein stability index of a GFP-peptide fusion (GPS, HEK-293T) (PSI 1-6); higher = more stable; details: c terminus: a fixed tail appended;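 also: lentivirally expressed fusions sorted by FACS into six bins by GFP to DsRed ratio, PSI derived from sequencing read proportions per bin multiplied by bin number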
result_type: protein stability index

// worked examples, protein stability index included
[[record]]
sequence_variant = "L15W"
result_value = 1.51

[[record]]
sequence_variant = "W1P"
result_value = 2.32

[[record]]
sequence_variant = "Q22P"
result_value = 2.01

[[record]]
sequence_variant = "K5N"
result_value = 2.12

[[record]]
sequence_variant = "Q22N"
result_value = 1.67

[[record]]
sequence_variant = "L15E"
result_value = 2.13


Inquiry: Name the reported protein stability index value associated with the variant `Q22K`
Reply text: 2.32
